# Protocol Summary: qHTS for Inhibitors of human tyrosyl-DNA phosphodiesterase 1 (TDP1): qHTS in cells in absence of CPT; also: nearly all actives have a fitted effect of over 55% in size
# Stated Conditions: DT40 Tdp1-/- hTDP1 cells, no CPT, ATP luminescence, 48 h
About 64,000 (15%) of roughly 420,000 compounds were called active. Not shown: some 27% with an inconclusive outcome. Calls follow the shape of the dose curve; as a rule, active = well fitted inhibition curve with a large enough effect; inconclusive = small, poorly fitted or top-dose-only effect; inactive = flat fitted curve, though single readings scatter. The list is a sample of the results.
Outcomes: active, inactive

[[record]]
compound = "COc1ccc(C2NC(=O)N(C)C3=C2C(=O)N(c2ccc(C(=O)O)cc2)C3)cc1 (stereo not given)"
cat = "inactive"

[[record]]
compound = "O=C(CNC(=O)c1ccccc1F)OCC(=O)c1c[nH]c2ccccc12"
cat = "inactive"

[[record]]
compound = "COC(=O)c1sccc1NC(=S)Nc1ccc(C)cc1"
cat = "inactive"

[[record]]
compound = "CCN(CC(=O)Nc1c(F)cccc1F)C(=O)c1ccc(Sc2nncn2C)c([N+](=O)[O-])c1"
cat = "inactive"

[[record]]
compound = "COCCCNS(=O)(=O)c1cccc(S(=O)(=O)c2cccc(S(=O)(=O)NCCCOC)c2)c1"
cat = "inactive"

[[record]]
compound = "COc1ccc([N+](=O)[O-])cc1-c1nc2ccccc2nc1-c1ccccc1"
cat = "inactive"

[[record]]
compound = "CN1C(=O)CC(c2ccccc2)C1=O (stereo not given)"
cat = "inactive"

[[record]]
compound = "Cc1ccc(C(=O)Nc2cc3c(cc2N2CCCC2)n(C)c(=O)c(=O)n3C)cc1"
cat = "active"

[[record]]
compound = "Cc1ccc(O)c(NC(=O)c2cc(-c3ccco3)on2)c1"
cat = "inactive"

[[record]]
compound = "COC(=O)c1sccc1NC(=O)CCC1CCCC1"
cat = "inactive"

[[record]]
compound = "O=C(NC1(C(F)(F)F)NC(=O)N(Cc2cccnc2)C1=O)c1ccccc1Cl (stereo not given)"
cat = "inactive"

[[record]]
compound = "CCc1ccc(S(=O)(=O)Nc2cc3c(cc2N2CCCCC2)n(C)c(=O)c(=O)n3C)cc1"
cat = "inactive"

[[record]]
compound = "Cc1ccc(C=O)cc1Cl"
cat = "inactive"

[[record]]
compound = "CCOc1ccc(C(C)=O)cc1COC(=O)CN1C(=O)NC2(CCCC2)C1=O"
cat = "inactive"

[[record]]
compound = "C[N+](C)(C)CCNC(=O)c1c(O)c2c([nH]c1=O)CCCC2"
cat = "inactive"

[[record]]
compound = "CCOC(=O)C(=CNNc1ccsc1C(=O)OC)C(=O)OCC"
cat = "active"

[[record]]
compound = "CC1=NNC(=O)C1CCC(=O)N/N=C\\c1ccc(Cl)c(Cl)c1 (stereo not given)"
cat = "inactive"

[[record]]
compound = "CCCCc1nnc(NC(=O)CSc2nc(C)cc(=O)[nH]2)s1"
cat = "inactive"

[[record]]
compound = "Cc1n[nH]c(=O)c2c(NC(=O)COC(=O)c3ncc(Cl)c(Cl)c3Cl)oc(C)c12"
cat = "inactive"

[[record]]
compound = "COC(=O)c1cc(NC(=O)CN2CCC(C(N)=O)(N3CCCCC3)CC2)cc(C(=O)OC)c1"
cat = "inactive"


----------
# Protocol Summary: qHTS for Inhibitors of human tyrosyl-DNA phosphodiesterase 1 (TDP1): qHTS in cells in absence of CPT; also: nearly all actives have a fitted effect of over 55% in size; also: potency is read from the fitted curve at half-maximal effect
# Stated Conditions: DT40 Tdp1-/- hTDP1 cells, no CPT, ATP luminescence, 48 h
The campaign covered roughly 420,000 compounds. About 64,000 (15%) were called active. Inconclusive results (about 27%) are left out. Only a sample is shown.
Property Measured: Potency

[[record]]
molecule = "COc1cc(OC)c(OC)cc1/C=N/Nc1ncnc2c1[nH]c1ccc(C)cc12"
result = "inactive"

[[record]]
molecule = "Cc1ccc(C(=O)Nc2ccc3[nH]c(=O)c(=O)[nH]c3c2)cc1"
result = "inactive"

[[record]]
molecule = "Cc1cc2cc(CN(Cc3cccs3)Cc3nnnn3CC3CCCO3)c(=O)[nH]c2cc1C (stereo not given)"
result = "20.6 µM (active)"

[[record]]
molecule = "Cc1ccc(S(=O)(=O)/N=C(/Nc2ccc3[nH]c(=O)[nH]c3c2)c2ccccc2)cc1"
result = "inactive"

[[record]]
molecule = "Cc1ccc(C(=O)N/C(=C/c2cccs2)C(=O)NCC2CCCO2)cc1 (stereo not given)"
result = "inactive"

[[record]]
molecule = "C/C(=C/C(=O)N1CCN(C)CC1)C(=O)O"
result = "inactive"

[[record]]
molecule = "Cc1nn(CC(=O)N/N=C/c2ccc(F)cc2)c(C)c1[N+](=O)[O-]"
result = "inactive"

[[record]]
molecule = "COc1cc(CNCCSc2nnnn2C)ccc1OCc1ccc(Cl)cc1Cl"
result = "23.1 µM (active)"

[[record]]
molecule = "COC(=O)c1ccc(Sc2ccc(F)cc2)c(N)c1"
result = "inactive"

[[record]]
molecule = "Cc1cc(C)nc(N/N=C/c2ccncc2)n1"
result = "inactive"

[[record]]
molecule = "Cn1nnnc1SCCNCc1ccc(Cl)c(Cl)c1"
result = "inactive"

[[record]]
molecule = "CC(C)OCCCNc1ncnc2c1[nH]c1ccc(F)cc12"
result = "2.91 µM (active)"

[[record]]
molecule = "C[C@]12C=CC(=O)C=C1CC[C@@H]1[C@@H]2C(=O)C[C@@]2(C)[C@H]1CC[C@]2(O)C(=O)CO"
result = "inactive"

[[record]]
molecule = "CCOc1ccc(CNCCSc2nnnn2C)cc1"
result = "inactive"

[[record]]
molecule = "CC(C)(C)c1cc(C(=O)N/N=C/c2ccc([N+](=O)[O-])s2)n[nH]1"
result = "11.6 µM (active)"


----------
# Protocol Summary: qHTS for Inhibitors of human tyrosyl-DNA phosphodiesterase 1 (TDP1): qHTS in cells in absence of CPT; also: nearly all actives have a fitted effect of over 55% in size; also: potency is read from the fitted curve at half-maximal effect
# Stated Conditions: DT40 Tdp1-/- hTDP1 cells, no CPT, ATP luminescence, 48 h
About 64,000 (15%) of roughly 420,000 compounds were called active. Inconclusive results (about 27%) are left out. Not all results are given here.
Property Measured: Potency

[[record]]
compound = "COc1ccc(-c2noc(CSc3nc4ccc(C)cc4[nH]3)n2)cc1"
result = "11.6 µM (active)"

[[record]]
compound = "COc1ccc(-n2c(-c3ccc(OC)c(OC)c3)n[nH]c2=S)cc1"
result = "inactive"

[[record]]
compound = "Cc1cccc(OCCC(=O)Nc2cc(S(=O)(=O)N3CCCCC3)ccc2N2CCOCC2)c1"
result = "20.6 µM (active)"

[[record]]
compound = "Cc1ccc(Cn2cc(CN3CC(N4CCN(C)CC4)CS3(=O)=O)nn2)cc1 (stereo unspecified)"
result = "inactive"

[[record]]
compound = "O=C(OCCN1C(=O)c2ccccc2C1=O)[C@@H]1CC(O)CN1S(=O)(=O)c1ccccc1[N+](=O)[O-] (stereo partly specified)"
result = "inactive"

[[record]]
compound = "COc1ccc(CCn2ccc(O)c(Cc3ccc(Cl)cc3Cl)c2=O)cc1OC"
result = "inactive"

[[record]]
compound = "O=C(NCc1ccncc1)C(=O)NCc1ccco1"
result = "inactive"

[[record]]
compound = "Cc1ccnc(NC(=O)C(C)N2C(=O)c3ccccc3C2=O)c1 (stereo unspecified)"
result = "inactive"

[[record]]
compound = "COC(=O)C1(C(=O)OC)C/C=C\\CN(S(=O)(=O)c2ccccc2[N+](=O)[O-])CCC1"
result = "16.4 µM (active)"

[[record]]
compound = "Cc1noc(C)c1-c1ccc(C(=O)NCc2ccncc2)c2occc12"
result = "8.2 µM (active)"

[[record]]
compound = "CC(=O)Nc1cc(C(=O)N2CCc3c(Cl)cccc3C2)cc2ncn(CCc3ccccn3)c12"
result = "inactive"

[[record]]
compound = "O=C(NNC(=O)C1C2CCC(C2)C1C(=O)O)c1ccc(Cl)cc1 (stereo unspecified)"
result = "inactive"

[[record]]
compound = "Cc1cccc(OCCC(=O)Nc2ccccc2C(N)=O)c1"
result = "11.6 µM (active)"

[[record]]
compound = "CSc1nnc(C2CCCN(CC(=O)Nc3ccccc3N3CCOCC3)C2)n1C(C)C (stereo unspecified)"
result = "inactive"

[[record]]
compound = "Cn1c(=O)n(C)c2cc(NS(=O)(=O)c3ccc(F)cc3)ccc21"
result = "inactive"

[[record]]
compound = "O=c1c2ccccc2c(-c2ccccc2)nn1-c1ccccn1"
result = "inactive"

[[record]]
compound = "COc1ccc(/C=C2\\SC(=S)N(CCC(=O)Nc3ccccn3)C2=O)cc1OC"
result = "inactive"

[[record]]
compound = "CCCSc1nc2c(c(=O)n(C)c(=O)n2C)n1Cc1ccc(C)cc1"
result = "16.4 µM (active)"

[[record]]
compound = "Cc1cc(C)cc(NS(=O)(=O)c2ccc(F)cc2)c1"
result = "inactive"

[[record]]
compound = "Cn1c(SCC(=O)NC2CCCCC2)nnc1-c1ccc(N)cc1"
result = "inactive"

[[record]]
compound = "O=S1(=O)CC(N2CCN(Cc3ccccc3F)CC2)CN1Cc1cn(Cc2cccc(C(F)(F)F)c2)nn1 (stereo unspecified)"
result = "16.4 µM (active)"

[[record]]
compound = "C#CC(C)(C)NC(=O)CSc1nc2c(c(=O)n(C)c(=O)n2C)n1CCCC"
result = "inactive"

[[record]]
compound = "CC(=O)NCCC(=O)Nc1cc(S(=O)(=O)N2CCOCC2)ccc1N1CCOCC1"
result = "inactive"

[[record]]
compound = "CC1CCN(Cc2nc(-c3ccc(Cl)cc3)no2)CC1"
result = "inactive"

[[record]]
compound = "Cn1c(=O)n(C)c2cc(S(=O)(=O)Nc3ccc(F)cc3)ccc21"
result = "20.6 µM (active)"

[[record]]
compound = "Cc1cccc(Cn2c(SCCO)nc3c2c(=O)n(C)c(=O)n3C)c1"
result = "14.6 µM (active)"

[[record]]
compound = "CCOC(=O)CSc1nc2c(c(=O)n(C)c(=O)n2C)n1Cc1ccccc1F"
result = "inactive"

[[record]]
compound = "CCOc1ccc(Cn2c(SCCCCC#N)nc3c2c(=O)n(C)c(=O)n3C)cc1OCC"
result = "inactive"

[[record]]
compound = "COc1ccc2nc(SCC(=O)Nc3c(C)cc(C)cc3C)[nH]c2c1"
result = "inactive"

[[record]]
compound = "COc1ccc(CNC(=O)c2c(C)cc(=O)oc2C)cc1OC"
result = "inactive"

[[record]]
compound = "Cc1ccc(-c2noc(CC(c3ccccc3)c3ccccc3)n2)cc1"
result = "inactive"

[[record]]
compound = "CC(C)n1c(SCC(=O)Nc2ccccc2N2CCCCC2)nc2c1c(=O)n(C)c(=O)n2C"
result = "23.1 µM (active)"

[[record]]
compound = "C(#CCN1CCOCC1)CCCN1CCOCC1"
result = "inactive"

[[record]]
compound = "Cc1cccc(OCC(=O)Nc2ccccc2F)c1"
result = "inactive"

[[record]]
compound = "Cn1c(=O)c2c(nc(SCCNS(=O)(=O)c3ccccc3)n2C)n(C)c1=O"
result = "inactive"

[[record]]
compound = "COc1ccc(CNC(=O)c2ccc(Br)s2)cc1OC"
result = "inactive"


Origin of measurements: PubChem BioAssay AID686978
